Test system: 786-0 renal
Measurement Protocol: NCI-60 one-dose screen, 48 h (100 = growth as untreated, 0 = no growth, -100 = all killed)
Settings: 10 µM unless noted
About 83,000 compounds went through this panel and 20% of them were active in at least one assay; those are over-represented in the sample as a whole.
Hi, to clarify the labels: T covers growth from 80% upward, F covers anything below 80%.

{"columns": ["Compound", "Assigned Label"],
 "data": [
  ["CC(C)(C)OC(=O)N1C(=O)c2c(c3c4ccccc4[nH]c3c3ccc4ccccc4c23)C1=O", "F"],
  ["CN(C)CCCNc1c2ccc(Cl)cc2nc2c1oc1ccccc12", "F"],
  ["COc1ccc(NC2=C(Cl)C(=O)C(C)=C(C)C2=O)cc1OC", "T"],
  ["O=C1c2c(c3c4cccnc4[nH]c3c3ccc4ccccc4c23)C(=O)N1CCO", "T"],
  ["O=C1NC(=C(Cl)Cl)/C(=N/S(=O)(=O)N2CCCCC2CC2(C(F)(F)F)N=N2)N1 (stereo not given)", "F"],
  ["Nc1cc(-c2c[nH]c3ccc(Cl)cc23)nc2cc(-c3c[nH]c4ccc(Cl)cc34)nn12", "F"],
  ["CC1=C(C)C(=O)C(Nc2ccccc2)=C(Cl)C1=O", "T"],
  ["C#Cc1nc(C2=C(C)C(O)/C(=N/O)C2)cs1 (stereo not given)", "F"],
  ["Cc1c(NC(=O)CSc2nc3sc4c(c3c(=O)n2-c2ccc(Cl)cc2)CCCC4)c(=O)n(-c2ccccc2)n1C", "T"],
  ["CCN1CCN(S(=O)(=O)c2oc(-c3ccc(Cl)cc3)nc2C#N)CC1", "F"]
]}

###

Tested on: MDA-MB-231 breast
Measurement Protocol: NCI-60 one-dose screen, 48 h (100 = growth as untreated, 0 = no growth, -100 = all killed)
Settings: 10 µM unless noted
Method: Cells are grown in 96 well plates and exposed to the test compound for 48 hours. Compounds are tested at a single concentration, which is 10^-5 M for most compounds. The reported endpoint is percent growth (GI% or GIPRCNT), where numbers from 0 - 100% represent growth inhibition, and numbers from -100% - 0 represent cell death. For example, a value of 40 represents 60% growth inhibition. A value of 0 means no net growth occurred over the course of the experiment. […]
Compounds without any hit were thinned out: in the full panel of roughly 83,000, 20% have a hit.
With a cut-off of 80%, any growth strictly below it is called Criterion met; any growth meeting it or above is called Criterion not met.

{"columns": ["Compound", "Assigned Label"],
 "data": [
  ["Clc1ccc(-c2cn3cc(Cc4ccc(Cl)c(Cl)c4)sc3n2)cc1", "Criterion met"],
  ["COc1cc(-c2nc3ccc(-c4nnc(SCC(=O)Nc5ccc(C(C)=O)cc5)o4)cc3[nH]2)cc(OC)c1OC", "Criterion not met"],
  ["Cc1cccc2sc(/N=C(\\N)C(Cl)(Cl)Cl)nc12", "Criterion not met"],
  ["COc1ccccc1C(=O)CSc1nc(Nc2ccc(S(N)(=O)=O)cc2)c2ccccc2n1", "Criterion met"],
  ["CS(=O)(=O)c1ccc(-c2nc3ccccn3c2/C=N/Nc2nc(-c3ccc(Cl)cc3)cs2)cc1", "Criterion not met"],
  ["COc1ccc(NC2=C(Cl)C(=O)C(C)=C(C)C2=O)cc1OC", "Criterion met"],
  ["COc1ccc(/C=N/NC(=O)c2[nH]c3ccc(Br)cc3c2-c2ccccc2)s1", "Criterion met"],
  ["NS(=O)(=O)c1cccc(Nc2nc(SCC(=O)c3ccc(Cl)cc3)nc3ccccc23)c1", "Criterion met"],
  ["Cc1ccc2ccc3ccc(C)nc3c2n1.Cc1ccc2ccc3ccc(C)nc3c2n1.Oc1c(Cl)cc(Cl)c2ccc(CN3CCCCC3)nc12.[Ru]", "Criterion met"],
  ["C/C(=C(/c1ccc(Cl)cc1)c1ccc(OCCN)cc1)c1ccc(C)cc1", "Criterion not met"],
  ["[Cl][Ru].c1ccc(-c2cccc(-c3ccccn3)n2)nc1.c1ccc(-c2ccnc3c2ccc2c(-c4ccccc4)ccnc23)cc1", "Criterion met"],
  ["O=C1Nc2ccc(Cl)cc2/C1=C/c1ccc(OCC(=O)c2ccc(Br)cc2)cc1", "Criterion met"],
  ["COc1ccc(/C=C/C(=O)c2ccc(NC(=O)CSc3nnc(-c4ccc5nc(-c6ccc(Cl)cc6)[nH]c5c4)o3)cc2)cc1", "Criterion not met"],
  ["Cn1c(SCC(=O)c2cccs2)nc2ccccc2c1=O", "Criterion not met"],
  ["Cc1ccc(/C=C/c2nn3c(-c4ccco4)nnc3s2)cc1C", "Criterion not met"],
  ["CC(C)(C)Nc1nc2c(OCCc3ccccc3)cccn2c1-c1ccc(Cl)cc1", "Criterion met"],
  ["COc1ccc(-n2c(SCC(=O)Nc3ccc(-c4nc5ccccc5[nH]4)cc3)nc3ccccc3c2=O)cc1", "Criterion met"],
  ["c1ccc(CNc2ncnc3ccc(-c4cnc5[nH]ncc5c4)cc23)cc1", "Criterion met"],
  ["O=C(CSc1nc2sc3c(c2c(=O)n1-c1ccc(Cl)cc1)CCCC3)NNC(=O)Nc1cccc(C(F)(F)F)c1", "Criterion met"]
]}
